Data origin, for the record: PubChem BioAssay (Tox21)

# Tested on: Nuclear receptor subfamily 1 group I member 3 (Homo sapiens) (UniProt Q14994)
# Sequence (Q14994 whole entry, looked up): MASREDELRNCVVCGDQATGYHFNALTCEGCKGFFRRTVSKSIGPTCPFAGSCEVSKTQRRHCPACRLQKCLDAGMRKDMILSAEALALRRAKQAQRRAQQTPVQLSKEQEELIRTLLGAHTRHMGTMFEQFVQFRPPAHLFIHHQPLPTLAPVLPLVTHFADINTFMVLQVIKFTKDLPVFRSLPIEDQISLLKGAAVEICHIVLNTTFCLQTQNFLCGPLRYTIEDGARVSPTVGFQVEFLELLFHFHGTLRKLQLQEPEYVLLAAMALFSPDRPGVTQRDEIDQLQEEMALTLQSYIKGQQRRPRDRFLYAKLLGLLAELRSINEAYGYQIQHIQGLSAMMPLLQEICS
# Procedure details: qHTS assay to identify small molecule antagonists of the constitutive androstane receptor (CAR) signaling pathway (AID 1224838);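 note: HepG2 cells stably expressing hCAR with CYP2B6 luciferase reporter stimulated by CITCO; nearly all actives have a fitted effect of over 40% in size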
# Setup conditions: HepG2-CYP2B6-hCAR luciferase, CITCO-stimulated, 24 h; series mostly up to 92.4 µM
Records with an inconclusive call do not appear. Calls of active or inactive are those of the source. Calls come from the whole dose curve; as a rule, active = well fitted inhibition curve with a large enough effect in the repeat runs; inconclusive = weak or mixed curves, or effect the other way; inactive = no such curve, though single readings can be large or run the other way.
Value kind: outcome

Here are 6 compounds together with their reported answers.
Compound: Cc1ccc(N(C)C)cc1
Result: inactive

Compound: CCCCCCCC(=O)OC
Result: inactive

Compound: Cc1ccc2oc(=O)ccc2c1
Result: inactive

Compound: CCC(O)OC(O)CC (stereo not given)
Result: inactive

Compound: CCc1ccc(CCOc2ccc(CC3SC(=O)NC3=O)cc2)nc1 (stereo not given)
Result: inactive

Compound: N[C@@H](Cc1cc(I)c(Oc2cc(I)c(O)c(I)c2)c(I)c1)C(=O)O
Result: inactive

Challenge: Can you share its outcome? I mean this compound: Oc1cccc2ccccc12
Response given: inactive

Challenge: Can you share its outcome? I mean this compound: CC(=O)c1ccccc1
Response given: inactive

Challenge: Can you share its outcome? I mean this compound: ON=C1CCCCC1
Response given: inactive

Challenge: Can you share its outcome? I mean this compound: C#CCN(C)Cc1ccccc1
Response given: inactive

Challenge: Can you share its outcome? I mean this compound: CN(C)CCC(c1ccccc1)c1ccccn1 (stereo not given)
Response given: inactive

Challenge: Can you share its outcome? I mean this compound: O=C1CCC(N2C(=O)c3ccccc3C2=O)C(=O)N1 (stereo not given)
Response given: inactive

Challenge: Can you share its outcome? I mean this compound: CCCCOC(=O)COc1ccc(Cl)cc1Cl
Response given: inactive

Challenge: Can you share its outcome? I mean this compound: CCCCCCCCCCCCS
Response given: inactive

Challenge: Can you share its outcome? I mean this compound: CC1CCC(C(C)C)C(O)C1 (stereo not given)
Response given: inactive

====

# Procedure details: qHTS assay to identify small molecule agonists of the RXR signaling pathway - cell viability counter screen (AID 1159529);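 note: HEK 293T cells carrying an RXR-alpha UAS beta-lactamase reporter; nearly all actives have a fitted effect of over 50% in size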
# Setup conditions: RXR-alpha-bla HEK293T viability, CellTiter-Glo, 16 h; series mostly up to 76.8 µM
Inconclusive results are not listed. Activity calls are given as the source filed them. Calls come from the whole dose curve; as a rule, active = well fitted cell-killing curve with a large enough effect in the repeat runs; inconclusive = weak or mixed curves, or effect the other way; inactive = no such curve, though single readings can be large or run the other way.
Value kind: outcome

Here are 5 compounds together with their reported answers.
Compound: CN(C)CCCN
outcome: inactive

Compound: CC(=O)c1ccccc1
outcome: inactive

Compound: OCCOCCN1CCN(C2=Nc3ccccc3Sc3ccccc32)CC1
outcome: inactive

Compound: CN(C)CCC(c1ccccc1)c1ccccn1 (configuration not stated)
outcome: inactive

Compound: C=CCOC(=O)c1ccccc1C(=O)OCC=C
outcome: inactive

Challenge: Can you share its outcome? I mean this compound: CC(c1cc2ccccc2s1)N(O)C(N)=O (configuration not stated)
Response given: inactive

Challenge: Can you share its outcome? I mean this compound: C#CCN(C)Cc1ccccc1
Response given: inactive

Challenge: Can you share its outcome? I mean this compound: OCCOCCOCCO
Response given: inactive

Challenge: Can you share its outcome? I mean this compound: CCCCCCCCCC
Response given: inactive

Challenge: Can you share its outcome? I mean this compound: C/C=C1/CC2C=CC1C2 (configuration not stated)
Response given: inactive

Challenge: Can you share its outcome? I mean this compound: CCCCCCCCCCCCCCCO
Response given: inactive

====

# Tested on: Cytochrome P450 1A2 (Homo sapiens) (UniProt P05177)
# Sequence (P05177 whole entry, looked up): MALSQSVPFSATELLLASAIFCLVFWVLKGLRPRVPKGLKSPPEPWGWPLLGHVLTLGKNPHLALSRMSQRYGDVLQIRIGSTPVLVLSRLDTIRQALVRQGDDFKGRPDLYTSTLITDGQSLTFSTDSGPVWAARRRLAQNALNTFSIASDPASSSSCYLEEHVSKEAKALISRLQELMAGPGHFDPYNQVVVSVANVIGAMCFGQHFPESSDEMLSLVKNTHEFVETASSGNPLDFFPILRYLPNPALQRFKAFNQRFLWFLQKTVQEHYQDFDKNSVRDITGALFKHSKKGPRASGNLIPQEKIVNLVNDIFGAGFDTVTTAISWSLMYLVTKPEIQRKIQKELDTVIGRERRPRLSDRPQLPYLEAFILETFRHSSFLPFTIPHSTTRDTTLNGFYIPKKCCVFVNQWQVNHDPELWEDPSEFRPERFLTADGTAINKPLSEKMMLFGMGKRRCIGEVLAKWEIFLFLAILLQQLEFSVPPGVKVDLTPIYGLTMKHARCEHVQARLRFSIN
# Procedure details: Cytochrome P450 Family 1 Subfamily A Member 2 (CYP1A2) small molecule antagonists: luciferase reporter qHTS assay (AID 1671199); note: nearly all actives have a fitted effect of over 50% in size
# Setup conditions: P450-Glo CYP1A2 enzyme, luciferin luminescence, 1 h; series mostly up to 115 µM
Records with an inconclusive call do not appear. Active and inactive are the calls of the source. Calls follow the shape of the dose curve; as a rule, active = well fitted inhibition curve with a large enough effect in the repeat runs; inconclusive = weak or mixed curves; inactive = no such curve, though single readings can be large or run the other way.
One label from this list, please: yes for active, no for inactive

Challenge: Status in this test for CCC(O)OCCCOC (centres undefined) ?
Response given: no

Challenge: Status in this test for CCCCCCCCC/C=C/CC1CC(=O)OC1=O (centres undefined) ?
Response given: no

Challenge: Status in this test for CC(=O)CC(=O)Nc1ccccc1C ?
Response given: yes

Challenge: Status in this test for CCCCC(CC)CO (centres undefined) ?
Response given: no

Challenge: Status in this test for CCC(O)OC(O)CC (centres undefined) ?
Response given: no

Challenge: Status in this test for Cc1cccnc1 ?
Response given: no

Challenge: Status in this test for CCc1cccc(C)c1N ?
Response given: yes

Challenge: Status in this test for O=C(O)c1ccccc1C(c1ccc(O)cc1)c1ccc(O)cc1 ?
Response given: no

Challenge: Status in this test for c1c[nH]cn1 ?
Response given: no

====

# Procedure details: qHTS assay to identify small molecule phospholipidosis (PLD) inducers (AID 1259344)
# Setup conditions: HepG2 phospholipidosis, LipidTOX Red imaging, 24 h; series mostly up to 38.3 µM
Results filed as inconclusive are left out. Active and inactive are the calls of the source. Calls follow the shape of the dose curve; as a rule, active = well fitted activation curve with a large enough effect; inconclusive = small, poorly fitted or top-dose-only effect; inactive = flat fitted curve, though single readings scatter.
Value kind: PLD induction

Compound: CC1=CCC2CC1C2(C)C (stereo unspecified)
Value kind: PLD induction
Result: inactive
--
Compound: C[C@H]1C[C@H]2[C@@H]3CCC4=CC(=O)C=C[C@]4(C)[C@@]3(F)[C@@H](O)C[C@]2(C)[C@@]1(O)C(=O)CO
Value kind: PLD induction
Result: inactive
--
Compound: NNc1nncc2ccccc12
Value kind: PLD induction
Result: inactive
--
Compound: CC1=CC(=O)NS(=O)(=O)O1
Value kind: PLD induction
Result: inactive
--
Compound: C#C[C@]1(O)CC[C@H]2[C@@H]3CCC4=CC(=O)CC[C@@H]4[C@H]3CC[C@@]21C
Value kind: PLD induction
Result: inactive

Now for a further compound.
Challenge: Can you share its PLD induction? I mean this compound: COCCCOc1ccnc(CS(=O)c2nc3ccccc3[nH]2)c1C (stereo unspecified)
Response given: inactive

====

# Procedure details: qHTS assay to identify small molecule antagonists of the retinoid-related orphan receptor gamma (ROR-gamma) signaling pathway - cell viability counter screen (AID 1159520); note: nearly all actives have a fitted effect of over 50% in size
# Setup conditions: Tet-on RORgamma CHO cells viability, ATP luminescence, 16 h; series mostly up to 92.4 µM
Records with an inconclusive call do not appear. Calls of active or inactive are those of the source. Calls follow the shape of the dose curve; as a rule, active = well fitted cell-killing curve with a large enough effect in the repeat runs; inconclusive = weak or mixed curves, or effect the other way; inactive = no such curve, though single readings can be large or run the other way.
Value kind: outcome

Here are 8 compounds together with their reported answers.
Compound: CSCCC=O
Result: inactive

Compound: CCCCCCCCCCCCOCCO
Result: inactive

Compound: C=CCOC(=O)c1ccccc1C(=O)OCC=C
Result: inactive

Compound: CC(O)COCC(C)O (centres undefined)
Result: inactive

Compound: C[C@H]1C[C@H]2[C@@H]3CCC4=CC(=O)C=C[C@]4(C)[C@@]3(F)[C@@H](O)C[C@]2(C)[C@@]1(O)C(=O)CO
Result: inactive

Compound: NNc1nncc2ccccc12
Result: inactive

Compound: O=C=NCCCCCCN=C=O
Result: inactive

Compound: O=C(Oc1ccccc1)c1ccccc1
Result: inactive

Challenge: Can you share its outcome? I mean this compound: CC(C)(N)CO
Response given: inactive

====

# Procedure details: qHTS assay to test for compound auto fluorescence at 535 nm (green) in HEK293 cells (AID 720680)
# Setup conditions: green autofluorescence 485/535 nm; series mostly up to 91.3 µM
Calls of active or inactive are those of the source. Calls follow the shape of the dose curve; as a rule, active = well fitted curve in the direction sought with a large enough effect in the repeat runs; inconclusive = weak or mixed curves; inactive = flat fitted curve, though single readings scatter.
Value kind: outcome

Here are 5 compounds together with their reported answers.
Compound: C[C@H]1C[C@@H]2[C@H]([C@@H](O)C[C@@]3(C)[C@H]2CC[C@]3(O)C(=O)CO)[C@@]2(C)C=CC(=O)C=C12
outcome: inactive
//
Compound: O=C(O)CCCC[C@@H]1SC[C@@H]2NC(=O)N[C@@H]21
outcome: inactive
//
Compound: Cc1occc(=O)c1O
outcome: inactive
//
Compound: Cc1cc(C)c(C)cc1C
outcome: inactive
//
Compound: Cc1cccnc1
outcome: inactive

Challenge: Can you share its outcome? I mean this compound: CN(C)CCCN
Response given: inactive

Challenge: Can you share its outcome? I mean this compound: O=c1[nH]c(=O)n([C@H]2CCCO2)cc1F
Response given: inactive

Challenge: Can you share its outcome? I mean this compound: O=C(O)c1cc(O)c(O)c(O)c1
Response given: inactive

====

# Procedure details: qHTS assay to identify small molecule antagonists of the retinoid acid receptor (RAR) signaling pathway - cell viability counter screen (AID 1159551); note: nearly all actives have a fitted effect of over 35% in size
# Setup conditions: C3RL4 cells viability, ATP luminescence (CellTiter-Glo), 6 h; series mostly up to 92.4 µM
# Procedure: U.S. Tox21 Program National Center for Advancing Translational Sciences [NCATS] NIH Chemical Genomics Center [NCGC] U.S. Environmental Protection Agency [EPA] National Institutes of Environmental Health Sciences [NIEHS] National Toxicology Program [NTP] U.S. Food and Drug Administration [FDA] […] Also cytotoxicity was assessed by determining the viability of cells based on the quantitation of ATP. […]
Results filed as inconclusive are left out. Active and inactive are the calls of the source. The call rests on the fitted dose curve; in most records, active means well fitted cell-killing curve with a large enough effect in the repeat runs; inconclusive means weak or mixed curves, or effect the other way; inactive means flat fitted curve, though single readings scatter.
Value kind: outcome

Here are 4 compounds together with their reported answers.
Compound: CCCCC(CC)COC(=O)C(C#N)=C(c1ccccc1)c1ccccc1 (centres undefined)
outcome: inactive

Compound: CCCCCCCCCCCCc1ccccc1
outcome: inactive

Compound: CCCCC(CC)COC(=O)CS (centres undefined)
outcome: inactive

Compound: COc1ccc(Cl)cc1C(=O)NCCc1ccc(S(=O)(=O)NC(=O)NC2CCCCC2)cc1
outcome: inactive

Challenge: Can you share its outcome? I mean this compound: CCCCCC1=CCCC1=O
Response given: inactive

Challenge: Can you share its outcome? I mean this compound: O=C(O)c1ccc(C(=O)O)cc1
Response given: inactive

Challenge: Can you share its outcome? I mean this compound: CCCSc1ccc2nc(NC(=O)OC)[nH]c2c1
Response given: inactive

Challenge: Can you share its outcome? I mean this compound: c1ccc2scnc2c1
Response given: inactive

Challenge: Can you share its outcome? I mean this compound: O=C(O)c1cc(=O)c2c(OCC(O)COc3cccc4oc(C(=O)O)cc(=O)c34)cccc2o1
Response given: inactive

Challenge: Can you share its outcome? I mean this compound: CCCCCOC(C)=O
Response given: inactive

Challenge: Can you share its outcome? I mean this compound: COc1ccc2cc([C@H](C)C(=O)O)ccc2c1
Response given: inactive

Challenge: Can you share its outcome? I mean this compound: CCCCCCCCCCCCS
Response given: inactive

Challenge: Can you share its outcome? I mean this compound: C/C=C1/CC2C=CC1C2 (centres undefined)
Response given: inactive

Challenge: Can you share its outcome? I mean this compound: O=C(O)c1ccc2c(c1)C(=O)OC2=O
Response given: inactive
